Attribution: paper PMC8185074

# system_name: HDAC2 (Homo sapiens, UniProt Q92769)
# Construct: purchased Reaction Biology Corporation (assay run by the CRO)
# Sequence (Q92769 whole entry): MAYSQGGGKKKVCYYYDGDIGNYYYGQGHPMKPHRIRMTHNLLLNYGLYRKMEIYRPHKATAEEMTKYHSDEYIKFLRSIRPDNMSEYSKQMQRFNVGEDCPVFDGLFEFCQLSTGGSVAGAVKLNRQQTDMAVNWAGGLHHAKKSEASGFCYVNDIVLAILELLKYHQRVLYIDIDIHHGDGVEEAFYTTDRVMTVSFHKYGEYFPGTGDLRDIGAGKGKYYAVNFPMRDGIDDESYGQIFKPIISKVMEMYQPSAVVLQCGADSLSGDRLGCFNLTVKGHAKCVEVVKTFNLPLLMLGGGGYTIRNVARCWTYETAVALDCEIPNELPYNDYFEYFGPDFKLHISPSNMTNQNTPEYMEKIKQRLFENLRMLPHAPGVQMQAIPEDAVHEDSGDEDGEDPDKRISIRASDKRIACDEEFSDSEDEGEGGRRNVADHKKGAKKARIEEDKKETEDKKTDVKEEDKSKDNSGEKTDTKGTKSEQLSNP
# protocol_description: HDAC2 inhibition, full IC50 measurement (Reaction Biology; fluorogenic p53 peptide RHKK(Ac)AMC)
# Format: biochemical
# condition_label: Conc. 1.00E-05 M, t2
Peptide text beside a SMILES is read from it.
Below, each entry is listed alongside its reported HDAC2 activity raw data (signal).
Field format: numeric only.

N=C(N)NCCC[C@@H]1NC(=O)[C@H](Cc2c[nH]c3ccccc23)NC(=O)[C@H](CC(=O)O)NC(=O)[C@@H](CO)NC(=O)[C@H](Cc2c[nH]c3ccccc23)NC(=O)[C@H](CCCCCS)NC(=O)[C@H](CCC(N)=O)NC1=O [des4.1.0, SHA-Trp-dSer-Asp-Trp-Arg-Gln] (HELM PEPTIDE1{D.W.R.Q.[O=C([C@H](CCCCCS)N[*:1])[*:2]].W.[dS]}$PEPTIDE1,PEPTIDE1,1:R1-7:R2$$$V2.0) ... -26565

Please examine the following record next.
(Q) Quote HDAC2 activity raw data (signal) reported for CCCC[C@H]1NC(=O)[C@H](Cc2ccccc2)NC(=O)[C@H](CCCCCS)NC(=O)[C@@H](CCCNC(=N)N)NC(=O)[C@H](C)NC(=O)[C@@H](CO)NC(=O)[C@@H](C)NC(=O)[C@H](CCCCN)NC1=O [des4.3.1.3, SHA-Phe-dNle-Lys-dAla-dSer-Ala-dArg] (HELM PEPTIDE1{A.[dR].[O=C([C@H](CCCCCS)N[*:1])[*:2]].F.[CCCC[C@@H](N[*:1])C(=O)[*:2]].K.[dA].[dS]}$PEPTIDE1,PEPTIDE1,1:R1-8:R2$$$V2.0) please.
(A) 207672

----------
# system_name: HDAC3 (Homo sapiens, UniProt O15379)
# Construct: purchased Reaction Biology Corporation (assay run by the CRO)
# Sequence (O15379 whole entry): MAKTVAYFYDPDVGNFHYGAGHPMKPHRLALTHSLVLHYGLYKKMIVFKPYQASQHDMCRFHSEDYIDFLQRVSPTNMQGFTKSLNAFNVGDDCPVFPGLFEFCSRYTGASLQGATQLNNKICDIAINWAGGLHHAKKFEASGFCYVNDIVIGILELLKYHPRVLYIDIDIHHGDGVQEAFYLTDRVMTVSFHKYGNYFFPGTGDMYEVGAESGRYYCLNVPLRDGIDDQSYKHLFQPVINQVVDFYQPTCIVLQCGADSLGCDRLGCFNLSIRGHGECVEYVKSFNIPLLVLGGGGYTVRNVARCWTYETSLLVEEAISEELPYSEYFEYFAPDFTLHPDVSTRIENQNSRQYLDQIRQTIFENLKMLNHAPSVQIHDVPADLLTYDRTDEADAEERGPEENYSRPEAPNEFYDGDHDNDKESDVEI
# Sequence (Q9Y618 395-489 partner limits assumed): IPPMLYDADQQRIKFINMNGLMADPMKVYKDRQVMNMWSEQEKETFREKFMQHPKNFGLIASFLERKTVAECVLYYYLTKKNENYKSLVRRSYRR
# protocol_description: HDAC3 inhibition, full IC50 measurement (Reaction Biology; fluorogenic p53 peptide RHKK(Ac)AMC)
# Type: biochemical
# condition_label: Conc. 4.57E-09 M, t1
Peptide text beside a SMILES is read from it.
value_kind: HDAC3 activity raw data (signal)

CC(C)[C@@H]1NC(=O)[C@H](CCCNC(=N)N)NC(=O)[C@@H](CC(=O)O)NC(=O)[C@H](CO)NC(=O)[C@@H](CO)NC(=O)[C@@H](CCC(=O)O)NC(=O)[C@H](Cc2ccc(O)cc2)NC(=O)[C@H](CCCCCS)NC1=O [des4.2.0, SHA-Tyr-dGlu-dSer-Ser-dAsp-Arg-Val] (HELM PEPTIDE1{R.V.[O=C([C@H](CCCCCS)N[*:1])[*:2]].Y.[dE].[dS].S.[dD]}$PEPTIDE1,PEPTIDE1,1:R1-8:R2$$$V2.0) ... 1182733
NCCCC[C@@H]1NC(=O)[C@@H]2C[C@@H](O)CN2C(=O)[C@H](CC(N)=O)NC(=O)[C@H](CCCCCS)NC(=O)CNC(=O)[C@H](Cc2c[nH]c3ccccc23)NC(=O)[C@@H](CCCCN)NC(=O)[C@H](CCC(N)=O)NC1=O [des1.1.2, SHA-Asn-Hpr-Lys-Gln-dLys-Trp-Gly] (HELM PEPTIDE1{G.[O=C([C@H](CCCCCS)N[*:1])[*:2]].N.[Hyp].K.Q.[dK].W}$PEPTIDE1,PEPTIDE1,1:R1-8:R2$$$V2.0) ... 1250419

(Q) Quote HDAC3 activity raw data (signal) reported for CSCC[C@H]1NC(=O)[C@@H](CO)NC(=O)[C@H](CC(N)=O)NC(=O)[C@H](CC(=O)O)NC(=O)[C@@H]([C@H](C)O)NC(=O)[C@H](Cc2c[nH]c3ccccc23)NC(=O)[C@H](CCCCCS)NC(=O)[C@H](CCCCN)NC(=O)[C@@H](CC(=O)O)NC1=O [des2.1.1, SHA-Trp-dThr-Asp-Asn-dSer-dMet-dAsp-Lys] (HELM PEPTIDE1{D.N.[dS].[dM].[dD].K.[O=C([C@H](CCCCCS)N[*:1])[*:2]].W.[dT]}$PEPTIDE1,PEPTIDE1,1:R1-9:R2$$$V2.0) please.
(A) 1034207

----------
# system_name: HDAC6 (Homo sapiens)
# Construct: purchased Reaction Biology Corporation (assay run by the CRO)
# Sequence (Q9UBN7 1-1215): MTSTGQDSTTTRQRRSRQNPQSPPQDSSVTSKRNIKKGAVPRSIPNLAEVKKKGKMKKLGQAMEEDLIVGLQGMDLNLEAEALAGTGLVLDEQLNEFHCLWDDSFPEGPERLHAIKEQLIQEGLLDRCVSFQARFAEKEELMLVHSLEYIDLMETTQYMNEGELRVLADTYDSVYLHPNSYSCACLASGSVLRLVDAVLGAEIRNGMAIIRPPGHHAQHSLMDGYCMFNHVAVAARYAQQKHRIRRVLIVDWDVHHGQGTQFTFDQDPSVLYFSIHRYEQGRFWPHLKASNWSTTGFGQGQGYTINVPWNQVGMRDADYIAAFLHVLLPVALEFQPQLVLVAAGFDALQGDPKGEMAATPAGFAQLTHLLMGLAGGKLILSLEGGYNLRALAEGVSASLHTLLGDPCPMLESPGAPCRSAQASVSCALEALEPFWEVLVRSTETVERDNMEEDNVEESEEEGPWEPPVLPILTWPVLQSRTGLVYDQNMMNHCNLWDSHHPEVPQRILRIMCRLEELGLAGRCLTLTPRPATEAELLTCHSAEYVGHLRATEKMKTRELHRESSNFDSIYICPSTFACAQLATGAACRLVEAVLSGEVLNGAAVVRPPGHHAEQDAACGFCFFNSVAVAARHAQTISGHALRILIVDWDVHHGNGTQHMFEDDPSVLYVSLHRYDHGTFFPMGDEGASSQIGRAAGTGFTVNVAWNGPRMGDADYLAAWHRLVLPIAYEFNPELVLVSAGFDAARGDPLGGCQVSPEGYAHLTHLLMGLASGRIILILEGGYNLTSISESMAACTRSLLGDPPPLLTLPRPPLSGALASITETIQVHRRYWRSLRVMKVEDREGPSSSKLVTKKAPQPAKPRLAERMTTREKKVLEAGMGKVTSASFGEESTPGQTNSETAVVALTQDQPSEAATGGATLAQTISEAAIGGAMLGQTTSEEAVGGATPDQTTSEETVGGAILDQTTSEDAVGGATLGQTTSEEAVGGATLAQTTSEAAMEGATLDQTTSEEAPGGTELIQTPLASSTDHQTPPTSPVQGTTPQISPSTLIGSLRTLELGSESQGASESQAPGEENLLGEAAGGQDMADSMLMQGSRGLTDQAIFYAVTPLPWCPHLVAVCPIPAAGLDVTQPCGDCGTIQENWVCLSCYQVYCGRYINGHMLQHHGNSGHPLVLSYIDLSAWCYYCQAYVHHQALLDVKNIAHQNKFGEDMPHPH
# protocol_description: HDAC6 inhibition, full IC50 measurement (Reaction Biology; fluorogenic p53 peptide RHKK(Ac)AMC)
# Type: biochemical
# condition_label: Conc. 1.23E-07 M, t2
Peptide text beside a SMILES is read from it.
value_kind: HDAC6 activity raw data (signal)

(Q) Quote HDAC6 activity raw data (signal) reported for CCCC[C@H]1NC(=O)[C@H](Cc2ccccc2)NC(=O)[C@H](CCCCCS)NC(=O)[C@@H](CO)NC(=O)[C@H](CC(=O)O)NC(=O)[C@@H](CO)NC(=O)[C@@H](C)NC(=O)[C@H](CCCCN)NC1=O [des4.3.1.1, SHA-Phe-dNle-Lys-dAla-dSer-Asp-dSer] (HELM PEPTIDE1{D.[dS].[O=C([C@H](CCCCCS)N[*:1])[*:2]].F.[CCCC[C@@H](N[*:1])C(=O)[*:2]].K.[dA].[dS]}$PEPTIDE1,PEPTIDE1,1:R1-8:R2$$$V2.0) please.
(A) 1440536

----------
# system_name: HDAC2 (Homo sapiens, UniProt Q92769)
# Construct: purchased Reaction Biology Corporation (assay run by the CRO)
# protocol_description: HDAC2 inhibition, full IC50 measurement (Reaction Biology; fluorogenic p53 peptide RHKK(Ac)AMC)
# Format: biochemical
# condition_label: Conc. 3.70E-07 M, t2
Peptide text beside a SMILES is read from it.
Below, each entry is listed alongside its reported HDAC2 activity raw data (signal).
Field format: numeric only.

Before answering, review these 5 worked examples.
CCCC[C@H]1NC(=O)[C@H](CC(=O)O)NC(=O)[C@@H](CO)NC(=O)[C@@H](C)NC(=O)[C@H](CCCCN)NC(=O)[C@@H](CCCCN)NC(=O)[C@H](Cc2ccccc2)NC(=O)[C@H](CCCCCS)NC1=O [des4.3.1.2, SHA-Phe-dLys-Lys-dAla-dSer-Asp-dNle] (HELM PEPTIDE1{D.[CCCC[C@@H](N[*:1])C(=O)[*:2]].[O=C([C@H](CCCCCS)N[*:1])[*:2]].F.[dK].K.[dA].[dS]}$PEPTIDE1,PEPTIDE1,1:R1-8:R2$$$V2.0) ... 1639218
N=C(N)NCCC[C@H]1NC(=O)[C@@H]2CCCN2C(=O)[C@H](CO)NC(=O)[C@@H](Cc2c[nH]cn2)NC(=O)[C@H](CCCCCS)NC(=O)[C@H](CCCCN)NC(=O)[C@H](Cc2ccc(O)cc2)NC(=O)[C@H]2CCCN2C(=O)[C@@H](CCC(N)=O)NC1=O [des3.1.0, SHA-dHis-Ser-Pro-dArg-dGln-dPro-Tyr-Lys] (HELM PEPTIDE1{K.[O=C([C@H](CCCCCS)N[*:1])[*:2]].[dH].S.P.[dR].[dQ].[dP].Y}$PEPTIDE1,PEPTIDE1,1:R1-9:R2$$$V2.0) ... 599514
CC(C)[C@@H]1NC(=O)[C@H](CCCNC(=N)N)NC(=O)[C@@H](CC(=O)O)NC(=O)[C@H](CO)NC(=O)[C@@H](CO)NC(=O)[C@@H](CCC(=O)O)NC(=O)[C@H](Cc2ccc(O)cc2)NC(=O)[C@H](CCCCCS)NC1=O [des4.2.0, SHA-Tyr-dGlu-dSer-Ser-dAsp-Arg-Val] (HELM PEPTIDE1{R.V.[O=C([C@H](CCCCCS)N[*:1])[*:2]].Y.[dE].[dS].S.[dD]}$PEPTIDE1,PEPTIDE1,1:R1-8:R2$$$V2.0) ... 767311
CCCC[C@H]1NC(=O)[C@H](Cc2ccccc2)NC(=O)[C@H](CCCCCS)NC(=O)[C@@H](CO)NC(=O)[C@H](CC(=O)O)NC(=O)[C@@H](CO)NC(=O)[C@@H](C)NC(=O)[C@H](CCCCN)NC1=O [des4.3.1.1, SHA-Phe-dNle-Lys-dAla-dSer-Asp-dSer] (HELM PEPTIDE1{D.[dS].[O=C([C@H](CCCCCS)N[*:1])[*:2]].F.[CCCC[C@@H](N[*:1])C(=O)[*:2]].K.[dA].[dS]}$PEPTIDE1,PEPTIDE1,1:R1-8:R2$$$V2.0) ... 1920676
CCCC[C@H]1NC(=O)[C@H](Cc2ccccc2)NC(=O)[C@H](CCCCCS)NC(=O)[C@@H](CCCNC(=N)N)NC(=O)[C@H](CC(=O)O)NC(=O)[C@@H](CO)NC(=O)[C@@H](C)NC(=O)[C@H](CCCCN)NC1=O [des4.3.1, SHA-Phe-dNle-Lys-dAla-dSer-Asp-dArg] (HELM PEPTIDE1{D.[dR].[O=C([C@H](CCCCCS)N[*:1])[*:2]].F.[CCCC[C@@H](N[*:1])C(=O)[*:2]].K.[dA].[dS]}$PEPTIDE1,PEPTIDE1,1:R1-8:R2$$$V2.0) ... 972905

Please examine the following record next.
(Q) Please respond with reported HDAC2 activity raw data (signal) (system HDAC2 (Homo sapiens, UniProt Q92769)) for C[C@H](O)[C@H]1NC(=O)[C@H](Cc2c[nH]c3ccccc23)NC(=O)[C@H](CCCCCS)NC(=O)[C@H](CCCCN)NC(=O)[C@@H](CC(=O)O)NC(=O)[C@@H](CCCCN)NC(=O)[C@@H](CO)NC(=O)[C@H](CC(N)=O)NC(=O)[C@H](CC(=O)O)NC1=O [des2.1.0, SHA-Trp-dThr-Asp-Asn-dSer-dLys-dAsp-Lys] (HELM PEPTIDE1{D.N.[dS].[dK].[dD].K.[O=C([C@H](CCCCCS)N[*:1])[*:2]].W.[dT]}$PEPTIDE1,PEPTIDE1,1:R1-9:R2$$$V2.0) .
(A) 158440
